Tested on: TK-10 renal
method notes: NCI tumour cell line growth inhibition, 48 h
property: TGI

>>> value("COc1ccc(-c2cc3c(N)ncnc3o2)cc1")
"> 25 µM"
>>> value("CC1CC2(C)CC(=O)C1C1C(=O)N(CCN3CCOCC3)C(=O)C12 (stereo not given)")
"> 100 µM"
>>> value("CC(CNc1nc(Nc2ccc(Cl)c(Cl)c2)nc(C(Cl)(Cl)Cl)n1)N(C)C (stereo not given)")
"3.27 µM"
>>> value("CC(=O)Oc1ccc2c3c1[C@@H]1O[C@@H]1c1cccc(c1-3)[C@@H]1O[C@H]21")
"6.12 µM"
>>> value("Cc1ccccc1NC(=O)CC(=O)n1nc(-c2ccccc2)c(N=Nc2ccc([N+](=O)[O-])cc2)c1-c1ccccc1")
"> 100 µM"
>>> value("O=C(NC(Cc1ccccc1)P(=O)(O)c1ccccc1)OCc1ccccc1 (stereo not given)")
"> 100 µM"
>>> value("O=C(N1CCN(c2ccccc2)CC1)N(C(=O)C1(c2ccc(Cl)cc2)CCCC1)S(=O)(=O)c1ccccc1")
"> 100 µM"
>>> value("COc1cc[nH]c1/C=C1\\C(=O)Nc2ccc([N+](=O)[O-])c(N3CC[C@@H](O)C3)c21")
"1.61 µM"
>>> value("CN(C)c1ccc(/C=c2\\sc3nnc(Cc4ccccc4)n3c2=O)cc1")
"> 100 µM"
>>> value("NC(=S)N=Nc1c(O)[nH]c2ccccc12")
"326 µM"
>>> value("COc1cccc(-c2cc(=O)c3cc(N4CCCC4)ccc3[nH]2)c1")
"> 10 µM"
>>> value("O=S1Cc2ccccc2CSS1 (stereo not given)")
"33.2 µM"
>>> value("C/C(CC(O)(C(F)(F)F)C(F)(F)F)=N/Nc1ccc([N+](=O)[O-])cc1[N+](=O)[O-]")
"> 10 µM"
>>> value("OCC(O)C(O)C(C=NNc1ncnc2ccc(Br)cc12)=NNc1ncnc2ccc(Br)cc12 (stereo not given)")
"> 100 µM"
>>> value("C[Si](C)(C)C#CCOC=C1CC1")
"> 100 µM"
>>> value("Cc1cc2nc3c(C#N)c4c(c(Nc5ccc(Cl)cc5)n3c2cc1C)CCC4")
"40.9 µM"
>>> value("CC(=O)Nc1ccc2c3c(cc(O)c2c1)N(C(=O)CCCCCC(=O)Nc1ccc2c4c(cc(O)c2c1)N(C(=O)OC(C)(C)C)CC4CCl)CC3CCl (stereo not given)")
"> 70.6 µM"
>>> value("CCC(=O)Oc1ccc(/C=N/NC(N)=S)nc1")
"> 100 µM"
>>> value("CCOC(=O)c1c(CN2CCOCC2)n(Cc2ccccc2)c2c1cc(O)c1nc(C)c(C)nc12")
"97.7 µM"
>>> value("Cc1ccc(C(=O)N/N=C(\\N=Nc2ccccc2)c2ccc(N(CCC#N)CCC#N)cc2C)cc1")
"> 100 µM"
>>> value("Cn1c2c(c3c(=O)[nH]ncc31)CCCc1ccccc1-2")
"> 100 µM"
>>> value("CC(=O)Nc1ccccc1S(=O)c1ccccc1 (stereo not given)")
"> 100 µM"
>>> value("CCCCCCCCC(=O)NCCN(CCN)C(=O)CCCCCCCC")
"30 µM"
>>> value("NCCNc1ncnc2ccc(Cl)cc12")
"> 100 µM"
>>> value("CSc1nc(Cl)c2c(n1)Sc1nc3ccccc3n1N=C2")
"> 100 µM"
>>> value("N#CC(CC(=O)O)=C(c1ccccc1)c1ccccc1")
"> 100 µM"
>>> value("O=C1C=C(OCC=C(Cl)Cl)C(=O)c2ccccc21")
"> 100 µM"
>>> value("NC(=O)N=Nc1c2ccccc2n2[nH]ccc12")
"> 100 µM"
>>> value("CCOC(=O)/C=C1\\C[C@H](NC(=O)OCc2ccccc2)C(=O)N1CC(=O)OCC")
"> 100 µM"
>>> value("CCCCCC/C(CC(=O)CCC(=O)NCCc1ccccc1)=N\\NC(=O)c1ccc2ccccc2c1O")
"> 100 µM"
>>> value("COC(=O)c1c(OC(C)=O)ccc2c1c1cc3ccccc3c(OC(C)=O)c1n2C")
"92.5 µM"
>>> value("CC(=O)N1c2ccc(-c3ccc(C(=O)O)cc3)cc2[C@H](Nc2ccc(Cl)cc2)C[C@@H]1C")
"17.9 µM"
>>> value("CC(C)[Si](OC1=CCC[C@H]2NC(=O)[C@@H](Cc3ccc([N+](=O)[O-])cc3)[C@@]12C)(C(C)C)C(C)C")
"23.9 µM"
>>> value("CCCC(=O)OC1=C(c2ccccc2)Sc2ccccc2-n2cccc21")
"> 10 µM"
>>> value("COc1cc(C2SC(N)=Nc3c2c(C)nn3C(=O)c2ccc(Cl)cc2)ccc1O (stereo not given)")
"> 10 µM"
